target: T1, biotinylated hBLyS-ECD (human, UniProt Q9Y275 134-285, biotinylated with Biotin-X-X-NHS (molar ratio 7:1); sites not stated); test: BAFF R-coated ELISA, biotinylated hBLyS-ECD bound in presence of antibody 0 nM
T1 construct: also called biotinylated immunogen; biotinylated hBLvS-ECD
T1 sequence (Q9Y275 134-285): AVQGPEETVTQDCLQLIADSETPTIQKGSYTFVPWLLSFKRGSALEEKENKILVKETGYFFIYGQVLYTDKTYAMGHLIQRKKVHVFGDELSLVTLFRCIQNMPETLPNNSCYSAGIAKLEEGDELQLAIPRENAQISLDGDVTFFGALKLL
Item-by-item account of OD450 nm
quantity_name: OD450 nm (OD450 nm)

* h8E7D9C7F5-1 (antibody, V domains shown, Humanized antibody; also called humanized BLyS antibody h8E7D9C7F5 variant 1 (VH.1 / Vk.1)) VH: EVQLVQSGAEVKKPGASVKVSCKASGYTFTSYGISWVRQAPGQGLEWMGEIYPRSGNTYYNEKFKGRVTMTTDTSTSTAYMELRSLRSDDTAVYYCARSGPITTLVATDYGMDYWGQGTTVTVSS VL: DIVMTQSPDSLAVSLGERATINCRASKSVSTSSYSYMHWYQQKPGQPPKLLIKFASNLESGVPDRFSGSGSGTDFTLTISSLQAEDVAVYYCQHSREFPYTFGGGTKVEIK | 2.05
* h97A3C2H4-9 (antibody, V domains shown, Humanized antibody; VH3-7/JH6 CDR-grafted with A93T, G44R; also called humanized BLyS antibody h97A3C2H4 variant 9 (VH.1b / Vk.1d)) VH: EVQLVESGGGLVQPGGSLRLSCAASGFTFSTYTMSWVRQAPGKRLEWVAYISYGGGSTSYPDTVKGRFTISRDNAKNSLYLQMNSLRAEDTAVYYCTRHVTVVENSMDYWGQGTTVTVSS VL: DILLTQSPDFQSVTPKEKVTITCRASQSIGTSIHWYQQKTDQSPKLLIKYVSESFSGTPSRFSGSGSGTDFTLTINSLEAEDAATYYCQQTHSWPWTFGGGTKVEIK | 1.94
* c97A3C2H4 (antibody, V domains shown, also called chimeric antibody c97A3C2H4) VH: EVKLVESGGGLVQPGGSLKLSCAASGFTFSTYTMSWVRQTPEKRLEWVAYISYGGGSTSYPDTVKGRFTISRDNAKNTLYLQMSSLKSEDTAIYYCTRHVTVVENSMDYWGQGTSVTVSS VL: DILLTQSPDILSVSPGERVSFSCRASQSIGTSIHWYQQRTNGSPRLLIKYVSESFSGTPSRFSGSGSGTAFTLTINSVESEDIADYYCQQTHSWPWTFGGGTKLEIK | 1.91
